Hey, just so you know, these numbers are from ChEMBL document CHEMBL1201862.

- Tested on: OVCAR-4
- Assay procedure: NCI tumour cell line growth inhibition, 48 h
The source made the active and inactive calls. No stated cut-off is given here; in the data, active = GI50 up to about 1.1 µM and inactive = higher.
Classes used: active, inactive

Compound: [O-][Cl+3]([O-])([O-])[O-].[O-][Cl+3]([O-])([O-])[O-].c1ccn2c(N3CCCC3)[n+]3c4ccccc4n4c(N5CCCC5)[n+]5ccccc5c4c3c2c1
Cat: inactive
--
Compound: COc1ccc(C(=O)CC(=O)C(=O)Nc2ccc(C)c(C)c2)cc1
Cat: inactive
--
Compound: CN1Cc2ccccc2/C=C\c2ccccc21
Cat: inactive
--
Compound: O=c1[nH]nc(Cc2ccc(Cl)cc2)n1O
Cat: inactive
--
Compound: C=CO/N=[N+](\[O-])N(CC)CC
Cat: inactive
--
Compound: C[N+]1(CCC[N+]2(C)CC3C4C=CC(CC4)C3C2)CCOCC1 (stereo unspecified)
Cat: inactive
--
Compound: CN(C)/C=N/c1c2c(nc3ccccc13)CCCC2
Cat: inactive
--
Compound: Oc1cc(Cl)ncn1
Cat: inactive
--
Compound: C/C(=N/NC(=S)N1CCCCCC1)c1cccc(/C(C)=N\NC(=S)N2CCCCCC2)n1
Cat: active
--
Compound: O=C(CC(C(=O)c1cccs1)c1ccsc1)c1ccsc1 (stereo unspecified)
Cat: inactive
--
Compound: COc1ccc(Oc2ccccc2N)cc1
Cat: inactive
--
Compound: Cn1cc(C2NC(=O)c3ccccc3N2)c2ccccc21 (stereo unspecified)
Cat: active
--
Compound: O=C1CSC(c2cccc([N+](=O)[O-])c2)N1c1ccc(-n2c(-c3ccccc3)nc3ccccc3c2=O)cc1 (stereo unspecified)
Cat: inactive
--
Compound: C=CCNC1=C2C[C@@H](C)C[C@@H](OC)[C@H](OC(=O)CCCCN)[C@H](C)/C=C(\C)[C@@H](OC(N)=O)[C@H](OC)/C=C\C=C(/C)C(=O)NC(=CC1=O)C2=O
Cat: inactive
--
Compound: CC(=O)N1C(C(=O)NNc2ccccc2)CSC1c1ccccc1 (stereo unspecified)
Cat: inactive
--
Compound: Cc1c(C2Cc3ccccc3N2C(=O)/C=C\C(=O)O)c2ccccc2n1C (stereo unspecified)
Cat: inactive
--
Compound: CC(=O)OC(CC(C)C)P1(=O)N(CC(C)(C)C)[C@@H]2CCCC[C@H]2N1CC(C)(C)C (stereo partly specified)
Cat: inactive
--
Compound: COc1nc(=O)n(C2CC(N=[N+]=[N-])C(CO)O2)cc1C (stereo unspecified)
Cat: inactive
--
Compound: C=C[C@@]1(C)CC2CC[C@]3(C)C(C)=CC(=O)CC3[C@]2(C)CC1O (stereo partly specified)
Cat: inactive
--
Compound: COC(=O)/C(=C(/C)c1ccco1)P(=O)(OC)OC
Cat: inactive
--
Compound: CC(=O)c1c(SCCN2CCOCC2)n(-c2ccccc2)c(=S)n(-c2ccccc2)c1=O
Cat: inactive

* * *

- Tested on: IGROV-1
- Assay procedure: NCI tumour cell line growth inhibition, 48 h
The source made the active and inactive calls. No stated cut-off is given here; in the data, active = GI50 up to about 1.1 µM and inactive = higher. Starred links: 1 amine or outer side, 2 acyl side, 3 side chain; linkers in the order of their positions; H or OH if unused. Positions of bridges follow the written chain, without caps; N, C: chain ends. Non-standard residues stand in square brackets, D forms with d. Residues, ends and D or L forms follow the SMILES beside them. Chains are numbered I, II in the order given. Actinocin(1to9) = Cc1c2oc3c(C)ccc(C(=O)[*:2])c3nc-2c(C(=O)[*:1])c(N)c1=O; aThr = C[C@H](O)[C@H](N)C(=O)O; NMeV = CN[C@H](C(=O)O)C(C)C; Sar = CNCC(=O)O
Classes used: true (1) = active, false (0) = inactive

Compound: Cc1c2oc3c(C)ccc(C(=O)N[C@@H]4C(=O)N[C@H](C(C)C)C(=O)N5CCC[C@H]5C(=O)N(C)CC(=O)N(C)[C@@H](C(C)C)C(=O)O[C@H]4C)c3nc-2c(C(=O)N[C@@H]2C(=O)N[C@H](C(C)C)C(=O)N3CCC[C@H]3C(=O)N(C)CC(=O)N(C)[C@@H](C(C)C)C(=O)O[C@H]2C)c(N)c1=O (I: [aThr][dV]P[Sar][NMeV] / II: [aThr][dV]P[Sar][NMeV]; ester I:1-I:C, II:1-II:C; linker I:N-II:N via Actinocin(1to9))
Cat: true (1)

Compound: CSC1=C(C#N)C(=O)N(c2ccc(C)cc2)C(=O)C1C#N (configuration not stated)
Cat: false (0)

Compound: COC(=O)C1Cc2c([nH]c3ccccc23)C(c2ccccc2O)N1 (configuration not stated)
Cat: false (0)

Compound: CCC(=C(C#N)C#N)c1cc(OC)c(OC)c(OC)c1
Cat: false (0)

Compound: O=C(CBr)c1ccc2cc(Br)c3ccccc3c2c1
Cat: false (0)

Compound: NC1CNC(=O)c2cscc21 (configuration not stated)
Cat: false (0)

Compound: O=C1c2cccc3cccc(c23)C2NCCCN12 (configuration not stated)
Cat: false (0)

Compound: CCSc1nc2cccc([N+](=O)[O-])c2n1CC
Cat: false (0)

Compound: CCOC(=O)NC(Nc1ccc(OC(F)(F)F)cc1)(C(F)(F)F)C(F)(F)F
Cat: false (0)

Compound: CC(C)(CO)CNc1cc(=O)[nH]c(N)n1
Cat: false (0)

Compound: O/N=C1/C(=C/c2ccc(Cl)cc2)CCCC1C(NO)c1ccc(Cl)cc1 (configuration not stated)
Cat: false (0)

Compound: COC(C(=O)NCCCCNC(=O)C(OC)c1ccccc1)c1ccccc1 (configuration not stated)
Cat: false (0)
